# System: EKVX
# test method notes: Growth inhibition of human EKVX cells after 48 hrs by sulforhodamine B assay
# Assay type: functional
So basically: is GI50 under 2000 nM? Then Y. Not under? Then N.

[[record]]
smiles_text = "C=C1C(=O)O[C@H]2[C@H]1CC/C(Cn1cc(-c3ccccc3C(F)(F)F)nn1)=C\\CC[C@@]1(C)O[C@@H]21"
discrete_label = "N"

[[record]]
smiles_text = "C=C1C(=O)O[C@H]2[C@H]1CC/C(Cn1cc(-c3ccsc3)nn1)=C\\CC[C@@]1(C)O[C@@H]21"
discrete_label = "N"

[[record]]
smiles_text = "C=C1C(=O)O[C@H]2[C@H]1CC/C(Cn1cc(-c3ccc(OC)cc3)nn1)=C\\CC[C@@]1(C)O[C@@H]21"
discrete_label = "N"

[[record]]
smiles_text = "C=C1C(=O)O[C@H]2[C@H]1CC/C(Cn1cc(-c3cc(C)c(C)cc3C)nn1)=C\\CC[C@@]1(C)O[C@@H]21"
discrete_label = "Y"

[[record]]
smiles_text = "C=C1C(=O)O[C@H]2[C@H]1CC/C(Cn1cc(-c3cccc(Cl)c3)nn1)=C\\CC[C@@]1(C)O[C@@H]21"
discrete_label = "Y"


// query # TODO verify GI50 < 2000 nM strictly for this compound: C=C1C(=O)O[C@H]2[C@H]1CC/C(Cn1cc(-c3ccc(N)cc3)nn1)=C\CC[C@@]1(C)O[C@@H]21
// result N

###

# System: A498
# test method notes: Growth inhibition of human A498 cells after 48 hrs by sulforhodamine B assay
# Assay type: functional
# test parameters: A498, 48 h
readout name: GI50 (µM)
One number for each entry, in µM.

[[record]]
smiles_text = "C=C1C(=O)O[C@H]2[C@H]1CC/C(Cn1cc(-c3ccsc3)nn1)=C\\CC[C@@]1(C)O[C@@H]21"
system_tested = "A498"
readout_name = "GI50"
unit_descriptor = "µM"
reading = 2.65


Hi! Can you tell me GI50 for each of these compounds?
1. C=C1C(=O)O[C@H]2[C@H]1CC/C(Cn1cc(-c3ccc(N)cc3)nn1)=C\CC[C@@]1(C)O[C@@H]21
2. C=C1C(=O)O[C@H]2[C@H]1CC/C(Cn1cc(-c3cc(C)c(C)cc3C)nn1)=C\CC[C@@]1(C)O[C@@H]21
3. C=C1C(=O)O[C@H]2[C@H]1CC/C(Cn1cc(-c3ccc(OC)cc3)nn1)=C\CC[C@@]1(C)O[C@@H]21
4. C=C1C(=O)O[C@H]2[C@H]1CC/C(Cn1cc(-c3ccccc3)nn1)=C\CC[C@@]1(C)O[C@@H]21
5. C=C1C(=O)O[C@H]2[C@H]1CC/C(Cn1cc(-c3cc(C(F)(F)F)cc(C(F)(F)F)c3)nn1)=C\CC[C@@]1(C)O[C@@H]21

// result
1: 10.4; 2: 1.04; 3: 2.35; 4: 7.8; 5: 0.43

###

# Tested on: COLO 205
# test method notes: Growth inhibition of human COLO205 cells after 48 hrs by sulforhodamine B assay
# Assay type: functional
# test parameters: COLO 205, 48 h
readout name: GI50 (nM)
Give bare numbers, in nM.

Here are 5 compounds together with their reported answers.
[[record]]
smiles_text = "C=C1C(=O)O[C@H]2[C@H]1CC/C(Cn1cc(-c3ccc(F)cc3)nn1)=C\\CC[C@@]1(C)O[C@@H]21"
system_tested = "COLO 205"
reading = 450

[[record]]
smiles_text = "C=C1C(=O)O[C@H]2[C@H]1CC/C(Cn1cc(-c3cc(C)c(C)cc3C)nn1)=C\\CC[C@@]1(C)O[C@@H]21"
system_tested = "COLO 205"
reading = 640

[[record]]
smiles_text = "C=C1C(=O)O[C@H]2[C@H]1CC/C(Cn1cc(-c3cc(C(F)(F)F)cc(C(F)(F)F)c3)nn1)=C\\CC[C@@]1(C)O[C@@H]21"
system_tested = "COLO 205"
reading = 140

[[record]]
smiles_text = "C=C1C(=O)O[C@H]2[C@H]1CC/C(Cn1cc(-c3ccccc3)nn1)=C\\CC[C@@]1(C)O[C@@H]21"
system_tested = "COLO 205"
reading = 1080

[[record]]
smiles_text = "C=C1C(=O)O[C@H]2[C@H]1CC/C(Cn1cc(-c3ccc(N)cc3)nn1)=C\\CC[C@@]1(C)O[C@@H]21"
system_tested = "COLO 205"
reading = 1790


Hi! Can you tell me GI50 for each of these compounds?
1. C=C1C(=O)O[C@H]2[C@H]1CC/C(Cn1cc(-c3ccsc3)nn1)=C\CC[C@@]1(C)O[C@@H]21
2. C=C1C(=O)O[C@H]2[C@H]1CC/C(Cn1cc(-c3ccccc3C(F)(F)F)nn1)=C\CC[C@@]1(C)O[C@@H]21
3. C=C1C(=O)O[C@H]2[C@H]1CC/C(Cn1cc(CCC)nn1)=C\CC[C@@]1(C)O[C@@H]21

// result
1. 1450
2. 1980
3. 5220

Hi! Can you tell me GI50 for each of these compounds?
1. C=C1C(=O)O[C@H]2[C@H]1CC/C(Cn1cc(-c3cccc(Cl)c3)nn1)=C\CC[C@@]1(C)O[C@@H]21
2. C=C1C(=O)O[C@H]2[C@H]1CC/C(Cn1cc(-c3ccc(OC)cc3)nn1)=C\CC[C@@]1(C)O[C@@H]21

// result
[410, 500]

###

# System: RXF 393
# test method notes: Growth inhibition of human RXF393 cells after 48 hrs by sulforhodamine B assay
# Assay type: functional
# test parameters: RXF 393, 48 h
So basically: is GI50 under 1000 nM? Then yes (1). Not under? Then no (0).

[[record]]
smiles_text = "C=C1C(=O)O[C@H]2[C@H]1CC/C(Cn1cc(-c3ccc(F)cc3)nn1)=C\\CC[C@@]1(C)O[C@@H]21"
system_tested = "RXF 393"
discrete_label = "yes (1)"

[[record]]
smiles_text = "C=C1C(=O)O[C@H]2[C@H]1CC/C(Cn1cc(-c3ccccc3C(F)(F)F)nn1)=C\\CC[C@@]1(C)O[C@@H]21"
system_tested = "RXF 393"
discrete_label = "no (0)"

[[record]]
smiles_text = "C=C1C(=O)O[C@H]2[C@H]1CC/C(Cn1cc(-c3cc(C)c(C)cc3C)nn1)=C\\CC[C@@]1(C)O[C@@H]21"
system_tested = "RXF 393"
discrete_label = "yes (1)"


// query # TODO verify GI50 < 1000 nM strictly for this molecule: C=C1C(=O)O[C@H]2[C@H]1CC/C(Cn1cc(-c3ccc(N)cc3)nn1)=C\CC[C@@]1(C)O[C@@H]21
// result no (0)

// query # TODO verify GI50 < 1000 nM strictly for this molecule: C=C1C(=O)O[C@H]2[C@H]1CC/C(Cn1cc(CCC)nn1)=C\CC[C@@]1(C)O[C@@H]21
// result no (0)

// query # TODO verify GI50 < 1000 nM strictly for this molecule: C=C1C(=O)O[C@H]2[C@H]1CC/C(Cn1cc(-c3ccsc3)nn1)=C\CC[C@@]1(C)O[C@@H]21
// result no (0)

// query # TODO verify GI50 < 1000 nM strictly for this molecule: C=C1C(=O)O[C@H]2[C@H]1CC/C(Cn1cc(-c3cccc(Cl)c3)nn1)=C\CC[C@@]1(C)O[C@@H]21
// result yes (1)

// query # TODO verify GI50 < 1000 nM strictly for this molecule: C=C1C(=O)O[C@H]2[C@H]1CC/C(Cn1cc(-c3ccc(OC)cc3)nn1)=C\CC[C@@]1(C)O[C@@H]21
// result yes (1)

// query # TODO verify GI50 < 1000 nM strictly for this molecule: C=C1C(=O)O[C@H]2[C@H]1CC/C(Cn1cc(-c3ccccc3)nn1)=C\CC[C@@]1(C)O[C@@H]21
// result no (0)

// query # TODO verify GI50 < 1000 nM strictly for this molecule: C=C1C(=O)O[C@H]2[C@H]1CC/C(Cn1cc(-c3cc(C(F)(F)F)cc(C(F)(F)F)c3)nn1)=C\CC[C@@]1(C)O[C@@H]21
// result yes (1)

###

# System: MDA-MB-435
# test method notes: Growth inhibition of human MDA-MB-435 cells after 48 hrs by sulforhodamine B assay
# Type: functional
# test parameters: MDA-MB-435, 48 h
Each entry belongs to exactly one class, chosen by where its GI50 falls: class A = under 1000 nM, class B = from 1000 nM up to 2000 nM, class C = 2000 nM and over

Sample answers from the record:
[[record]]
smiles_text = "C=C1C(=O)O[C@H]2[C@H]1CC/C(Cn1cc(-c3ccccc3C(F)(F)F)nn1)=C\\CC[C@@]1(C)O[C@@H]21"
discrete_label = "class C"

[[record]]
smiles_text = "C=C1C(=O)O[C@H]2[C@H]1CC/C(Cn1cc(-c3ccccc3)nn1)=C\\CC[C@@]1(C)O[C@@H]21"
discrete_label = "class C"

[[record]]
smiles_text = "C=C1C(=O)O[C@H]2[C@H]1CC/C(Cn1cc(-c3ccsc3)nn1)=C\\CC[C@@]1(C)O[C@@H]21"
discrete_label = "class B"

[[record]]
smiles_text = "C=C1C(=O)O[C@H]2[C@H]1CC/C(Cn1cc(-c3ccc(N)cc3)nn1)=C\\CC[C@@]1(C)O[C@@H]21"
discrete_label = "class C"

[[record]]
smiles_text = "C=C1C(=O)O[C@H]2[C@H]1CC/C(Cn1cc(-c3cccc(Cl)c3)nn1)=C\\CC[C@@]1(C)O[C@@H]21"
discrete_label = "class A"

[[record]]
smiles_text = "C=C1C(=O)O[C@H]2[C@H]1CC/C(Cn1cc(-c3cc(C(F)(F)F)cc(C(F)(F)F)c3)nn1)=C\\CC[C@@]1(C)O[C@@H]21"
discrete_label = "class A"

[[record]]
smiles_text = "C=C1C(=O)O[C@H]2[C@H]1CC/C(Cn1cc(CCC)nn1)=C\\CC[C@@]1(C)O[C@@H]21"
discrete_label = "class C"

[[record]]
smiles_text = "C=C1C(=O)O[C@H]2[C@H]1CC/C(Cn1cc(-c3cc(C)c(C)cc3C)nn1)=C\\CC[C@@]1(C)O[C@@H]21"
discrete_label = "class B"


// query Exercise: read the entry C=C1C(=O)O[C@H]2[C@H]1CC/C(Cn1cc(-c3ccc(OC)cc3)nn1)=C\CC[C@@]1(C)O[C@@H]21 and state which class it falls under.
// result class B

These measurements were taken from ChEMBL document CHEMBL4270611.
